- experimentalDetails: Aqueous solvolysis, K value at a pH of 3.0.
- Format: ADME
- conditionContext: buffer, pH 3
Entries and their k

entrySmiles | k (s⁻¹)
CC(C)(C)OC(=O)N1C[C@H]2C[C@]23C=CC(=O)C=C13 | 1.98e-06
Cc1c[nH]c2c1[C@@]13C[C@@H]1CN(C(=O)OC(C)(C)C)C3=CC2=O | 5.26e-06
CC(C)(C)OC(=O)N1C[C@H]2C[C@@]23C1=CC(=O)c1ccc(C#N)cc13 | 9e-07
CC(C)(C)OC(=O)N1C[C@H]2C[C@@]23C1=CC(=O)c1ccccc13 | 1.45e-06
COC(=O)[C@]1(C)N=C2C(=O)C=C3N(C(=O)OC(C)(C)C)C[C@H]4C[C@@]34C2=C1O | 1.75e-06
COC(=O)N1C[C@H]2C[C@@]23C1=CC(=O)c1ccccc13 | 3.4e-06
CCS(=O)(=O)N1C[C@H]2C[C@@]23C1=CC(=O)c1ccccc13 | 5e-07
CC(C)(C)OC(=O)N1CC[C@H]2C[C@@]23C1=CC(=O)c1ccccc13 | 9.07e-06
CCC(=O)N1C[C@H]2C[C@@]23C1=CC(=O)c1ccccc13 | 2e-06

----------
- experimentalDetails: Half life at a pH of 3.0.
- Format: ADME
- conditionContext: pH 3
measuredQuantity: half-life

entrySmiles | endpointValue
CC(C)(C)OC(=O)N1CC[C@H]2C[C@@]23C1=CC(=O)c1ccccc13 | 2.1 h
COc1ccc2c(c1)[C@@]13C[C@@H]1CN(C(=O)OC(C)(C)C)C3=CC2=O | 110 h
CCS(=O)(=O)N1C[C@H]2C[C@@]23C1=CC(=O)c1ccccc13 | 383 h
COC(=O)N1C[C@H]2C[C@@]23C1=CC(=O)c1ccccc13 | 57 h
CC(C)(C)OC(=O)N1C[C@H]2C[C@@]23C1=CC(=O)c1ccccc13 | 133 h
CCC(=O)N1C[C@H]2C[C@@]23C1=CC(=O)c1ccccc13 | 96 h
CC(C)(C)OC(=O)N1C[C@H]2C[C@]23C=CC(=O)C=C13 | 0.01 h
CC(C)(C)OC(=O)N1C[C@H]2C[C@@]23C1=CC(=O)c1ccc(C#N)cc13 | 213 h
CNC(=O)N1C[C@H]2C[C@@]23C1=CC(=O)c1ccccc13 | 36 h

----------
- experimentalDetails: Half life at 0.25 equivalent H+ and 100 equivalent CH3OH.
- Format: ADME

entrySmiles | half-life / min
CC(C)(C)OC(=O)N1C[C@H]2C[C@@]23C1=CC(=O)c1ccc(C#N)cc13 | 15.6
